molecular target: KRas-mediated phosphorylation of ERK in H358 cells (Homo sapiens, UniProt P01116, G12C); construct: pERK HTRF read-out; assay: Inhibition of KRas-mediated phosphorylation of ERK (HTRF), H358 cells; assay type: cell-based; details: HTRF pERK, 3 h incubation
Sequence (P01116 1-188 isoform P01116-2 G12C): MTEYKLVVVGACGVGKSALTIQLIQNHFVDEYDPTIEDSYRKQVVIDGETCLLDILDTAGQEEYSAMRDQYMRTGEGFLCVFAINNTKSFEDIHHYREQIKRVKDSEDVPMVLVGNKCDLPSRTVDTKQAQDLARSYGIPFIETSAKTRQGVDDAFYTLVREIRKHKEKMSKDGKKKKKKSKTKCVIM
Measurement Type: IC50 (nM)

[
  {
    "Compound": "COc1ccn(C(=O)C2CCCN(c3nc(OC[C@@]45CCCN4C[C@H](F)C5)nc4c(F)c(-c5ccc(F)c6sc(N)c(C#N)c56)c(Cl)cc34)CC2)n1 (stereo partly shown)",
    "Recorded Measurement": 22
  }
]

I: CN(CCCC(=O)Nc1ccccn1)c1nc(OC[C@@]23CCCN2C[C@H](F)C3)nc2c(F)c(-c3ccc(F)c4sc(N)c(C#N)c34)c(Cl)cc12
II: COC(=O)CCCN(C)c1nc(OC[C@@]23CCCN2C[C@H](F)C3)nc2c(F)c(-c3ccc(F)c4sc(N)c(C#N)c34)c(Cl)cc12
III: CCc1c(F)ccc2cc(O)cc(-c3ncc4c(N5CC[C@@H](C(=O)n6ccc(C)n6)[C@@H](C)C5)nc(OC[C@@]56CCCN5C[C@H](F)C6)nc4c3F)c12
Please put the entries in order of rising IC50. Thanks in advance for listing the labels in the requested order.
III, I, II
